# Tested on: HCT-15 colon
# protocolNotes: NCI-60 one-dose screen, 48 h
# appliedConditions: 10 µM
The panel holds about 83,000 compounds, 20% with a hit somewhere; the sample as a whole holds those more often. Activity calls are given as the source filed them. The calls were made as follows: active = growth percent below 10; inactive = the rest.
Pick one: Y = active, N = inactive

Answer briefly: the call reported for C=C1[C@@H](C)C2[C@H](Cc3ccccc3)NC(=O)[C@]23[C@H](OC(C)=O)/C=C/[C@@](C)(O)C(=O)[C@@H](C)C/C=C/[C@H]3[C@@H]1O (some centres undefined) in this assay.
N

Input "CC1=C2C(=O)[C@](C)(CO)C=C2C(=O)[C@](C)(O)C12CC2"
Y

Input "CC1=C2C(=C[C@@](C)(COC(=O)c3ccc(S(=O)(=O)F)cc3)[C@@H]2O)C(=O)[C@](C)(O)C12CC2"
Y

Input "COc1cc(OC)c(S(=O)(=O)N(CCCl)CCCl)cc1C(=O)/C=C/c1ccc(Cl)cc1"
N

---

# Tested on: HL-60(TB) leukemia
# protocolNotes: NCI-60 one-dose screen, 48 h
# appliedConditions: 10 µM unless noted
About 83,000 compounds went through this panel and 20% of them were active in at least one assay; those are over-represented in the sample as a whole. The source made the active and inactive calls. Rule for the calls: active = growth percent below 10; inactive = the rest.
Pick one: active, inactive

Some solved cases for reference:
{"compound": "COc1ccc(CCN2C(=O)CSC2=S)cc1", "labelValue": "inactive"}
{"compound": "CCN1C(=O)N(CC)C2SC(N/N=C/c3ccc(OC)cc3)=NC21 (centres undefined)", "labelValue": "active"}

Answer briefly: the call reported for "O=C1[C@@H]2Cc3c([nH]c4ccccc34)[C@H](c3c(Cl)cccc3Cl)N2C(=O)CN1C1CCN(Cc2ccccc2)CC1" in this assay.
inactive

---

# System: SK-MEL-2 melanoma
# protocolNotes: NCI-60 one-dose screen, 48 h (100 = growth as untreated, 0 = no growth, -100 = all killed)
# appliedConditions: 10 µM
About 83,000 compounds went through this panel and 20% of them were active in at least one assay; those are over-represented in the sample as a whole.
Recorded growth for the following molecules
Form entry: value (%) — number only.

# count of solved cases: 2
{"recordSmiles": "CC1=C(CN(O)C(N)=O)C2=C(C)C3(CC3)[C@](C)(O)C(=O)C2=C1", "testedOn": "SK-MEL-2 melanoma", "growth, %": -28.8}
{"recordSmiles": "COC(=O)[C@H]1[C@@H](O)[C@@]2(O)c3c(OC)cc(OC)cc3O[C@@]2(c2ccc(OC)cc2)[C@@H]1c1ccccc1", "testedOn": "SK-MEL-2 melanoma", "growth, %": -45.5}

Please look up its growth: "COc1cc2c(O[C@@H]3OC[C@H](OC(C)=O)[C@H](OC(C)=O)[C@H]3O)c3c(c(-c4ccc5c(c4)OCO5)c2cc1OC)C(=O)OC3"
-31.8

Input "CC1=C[C@H]2O[C@@H]3C[C@@H](O)[C@](C)([C@@]2(C)CC1)[C@@]31CO1"
22.6

---

# Tested on: HL-60(TB) leukemia
# protocolNotes: NCI-60 one-dose screen, 48 h (100 = growth as untreated, 0 = no growth, -100 = all killed)
# appliedConditions: 10 µM unless noted
# Method: Growth inhibition of the HL-60(TB) human tumor cell line is measured as a screen for anti-cancer activity. Cells are grown in 96 well plates and exposed to the test compound for 48 hours. Compounds are tested at a single concentration, which is 10^-5 M for most compounds. The reported endpoint is percent growth (GI% or GIPRCNT), where numbers from 0 - 100% represent growth inhibition, and numbers from -100% - 0 represent cell death. For example, a value of 40 represents 60% growth inhibition. […]
This is part of a sample that, as a whole, favours compounds with a hit. Of some 83,000 tested, about 20% had one in any assay.
observedProperty: growth (%)
Form entry: value (%) — number only.

{"molecule": "COc1ccc(/C=N/NC(=O)c2[nH]c3ccc(Br)cc3c2-c2ccccc2)o1", "testedOn": "HL-60(TB) leukemia", "unitString": "%", "growth": -20.2}
{"molecule": "Cc1ccc(NC(=O)/C=C/c2ccc(OCCCOc3ccc4c(C)cc(=O)oc4c3)cc2)cc1", "testedOn": "HL-60(TB) leukemia", "unitString": "%", "growth": 98.5}
{"molecule": "COc1ccc2c(c1)c(-c1nnc(N)nc1-c1cn(C)c3ccccc13)cn2C", "testedOn": "HL-60(TB) leukemia", "unitString": "%", "growth": 72.6}
{"molecule": "CN1C(=O)N(C)C2C1NN=c1s/c(=C\\c3ccccn3)c(=O)n12 (stereo not given)", "testedOn": "HL-60(TB) leukemia", "unitString": "%", "growth": 101}

Now let's try a different one.
Query the reported growth for HL-60(TB) leukemia; item: "Nc1c(C(=O)Nc2ccc(C(F)(F)F)cc2)sc2nc(-c3cnccn3)cc(-c3cccs3)c12"
51.9

---

# System: HL-60(TB) leukemia
# protocolNotes: NCI-60 one-dose screen, 48 h
# appliedConditions: 10 µM unless noted
The panel holds about 83,000 compounds, 20% with a hit somewhere; the sample as a whole holds those more often. The source made the active and inactive calls. Rule for the calls: active = growth percent below 10; inactive = the rest.
Pick one: true (1) = active, false (0) = inactive

Some solved cases for reference:
{"recordSmiles": "CCN(CC)c1ccc(/C=N/NC(=O)c2ccc(NS(C)(=O)=O)cc2)cc1", "labelValue": "true (1)"}
{"recordSmiles": "CC(C)C(=O)Nc1ccc(-c2nc(-c3cccc(O)c3)c(-c3ccnc(Br)c3)[nH]2)cc1", "labelValue": "true (1)"}
{"recordSmiles": "COc1cc(/C=C/C(=O)c2ccc(NC(=O)CSc3nnc(-c4ccc(-c5nc6ccc(Cl)cc6[nH]5)cc4)o3)cc2)cc(OC)c1OC", "labelValue": "false (0)"}
{"recordSmiles": "O=C(CSc1nccc(=O)[nH]1)Nc1ccc(-c2nc3ccccc3[nH]2)cc1", "labelValue": "false (0)"}

Could you now look at the following molecule, please?
Answer briefly: the call reported for "Cn1c(SCC(=O)c2cccs2)nc2ccccc2c1=O" in this assay.
false (0)

---

# Test system: HL-60(TB) leukemia
# protocolNotes: NCI-60 one-dose screen, 48 h (100 = growth as untreated, 0 = no growth, -100 = all killed)
# appliedConditions: 10 µM unless noted
This is part of a sample that, as a whole, favours compounds with a hit. Of some 83,000 tested, about 20% had one in any assay. The source made the active and inactive calls. The calls were made as follows: active = growth percent below 10; inactive = the rest.
observedProperty: growth

# count of solved cases: 4
{"compound": "Oc1ccc(CSc2nnc(-c3cnccn3)o2)c2cccnc12", "testedOn": "HL-60(TB) leukemia", "growth": "-11.5% (active)"}
{"compound": "Cc1nn(-c2ccccc2)cc1/C=N/Nc1nc(Nc2ccccc2)nc(Nc2ccc(S(N)(=O)=O)cc2)n1", "testedOn": "HL-60(TB) leukemia", "growth": "4% (active)"}
{"compound": "CCOC(=O)c1c(Nc2ccccc2)nn2c(N)c(C#N)c(-c3ccc(F)cc3)nc12", "testedOn": "HL-60(TB) leukemia", "growth": "72.6% (inactive)"}
{"compound": "O=C(Nc1cccc(Cl)c1)Nc1nc2ccc([N+](=O)[O-])cc2s1", "testedOn": "HL-60(TB) leukemia", "growth": "-40% (active)"}

Query the reported growth for HL-60(TB) leukemia; item: CN1CC[C@@H]2[C@@]3(C)CC[C@H](O)C(C)(C)[C@@H]3CC[C@@]2(C)[C@]2(C)CC[C@@]3(CO)CCC(C)(C)C[C@@H]3C12 (stereo partly specified)
79.6% (inactive)

Input "CNC(=O)c1cc(-n2ccc3cc(NC(=O)Nc4ccc(N5CCN(C)CC5)c(C(F)(F)F)c4)ccc32)ccn1"
65.8% (inactive)

Input "Clc1cccc(/C=N/Nc2nc(N/N=C/c3cccc(Cl)c3)nc(N3CCOCC3)n2)c1"
-9.74% (active)

Input "CCCCOc1ccc(S(=O)(=O)N2CCN(c3nc(C)cc(N4CCOCC4)n3)CC2)cc1"
20.3% (inactive)

Input O=C(NNc1nc2cc(F)c(F)cc2n2c(CN3CC4CNCC4C3)ccc12)c1cnccn1 (stereo unspecified)
-1.93% (active)

Input C/C(=N\NC(=O)CSc1nc2sc3c(c2c(=O)n1-c1ccccc1)CCC(C)C3)c1ccc(Cl)cc1 (stereo unspecified)
3.75% (active)

---

# System: NCI-H460 lung
# protocolNotes: NCI-60 one-dose screen, 48 h (100 = growth as untreated, 0 = no growth, -100 = all killed)
# appliedConditions: 10 µM
This is part of a sample that, as a whole, favours compounds with a hit. Of some 83,000 tested, about 20% had one in any assay.
Recorded growth for the following compounds
Form entry: value (%) — number only.

# count of solved cases: 4
{"recordSmiles": "CC1=C2C(=C[C@@](C)(C=O)[C@@H]2O)C(=O)[C@](C)(O)C12CC2", "unitString": "%", "growth": 5.09}
{"recordSmiles": "CC1=C[C@H]2O[C@@H]3C[C@H]4OC(=O)/C=C\\C=C\\[C@H]([C@@H](C)O)OCC[C@@H](C)[C@H](O)C(=O)OC[C@@]2(CC1)[C@]4(C)[C@]31CO1", "unitString": "%", "growth": -5.9}
{"recordSmiles": "COC(=O)[C@H]1[C@@H](O)[C@@]2(O)c3c(OC)cc(OC)cc3O[C@@]2(c2ccc(OC)cc2)[C@@H]1c1ccccc1", "unitString": "%", "growth": 2.19}
{"recordSmiles": "C[C@@H]1CCC/C=C/[C@H]2C[C@@H](O)C[C@@H]2[C@@H](O)/C=C/C(=O)O1", "unitString": "%", "growth": 18.2}

Please look up its growth: "CC(=O)O[C@@H]1C[C@H]2O[C@@H]3C=C(C)CC[C@]3(C)[C@]1(C)[C@]21CO1"
6.94

Input "CC1=C(CN(O)C(N)=O)C2=C(C)C3(CC3)[C@@](C)(O)C(=O)C2=C1"
-11.2

Reference source for all entries: PubChem BioAssay (NCI)
